Biological target: Yer064c (UniProt P40041)
Sequence: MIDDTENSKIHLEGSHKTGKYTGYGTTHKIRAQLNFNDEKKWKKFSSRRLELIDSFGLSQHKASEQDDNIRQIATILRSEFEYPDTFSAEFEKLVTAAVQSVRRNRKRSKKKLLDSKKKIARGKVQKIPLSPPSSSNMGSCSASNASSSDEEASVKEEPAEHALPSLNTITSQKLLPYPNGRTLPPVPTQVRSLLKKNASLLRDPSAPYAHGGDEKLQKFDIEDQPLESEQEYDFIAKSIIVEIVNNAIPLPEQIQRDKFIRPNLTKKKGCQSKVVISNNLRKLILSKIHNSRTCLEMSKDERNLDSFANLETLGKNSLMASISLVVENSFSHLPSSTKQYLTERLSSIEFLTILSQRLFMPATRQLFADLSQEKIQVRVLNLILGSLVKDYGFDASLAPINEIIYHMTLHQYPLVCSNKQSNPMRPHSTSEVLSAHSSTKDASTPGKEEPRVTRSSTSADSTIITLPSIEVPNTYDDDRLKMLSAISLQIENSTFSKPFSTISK
Assay: PBM E-score (8-mer binding enrichment) (E-score (-0.5 to 0.5)); higher = stronger / more preferred TF binding
Conditions: protein concentration: 200 nM; construct: GST-full length
Over roughly 33,000 sequences, “E-score (-0.5 to 0.5)” has its median near -0.036; the highest 2% begin near 0.37. This is one part of a sample in which the highest values are shown more often than they occur.

residueCodes	PBM E-score
GCGTGAAA	-0.106
CCTATGAC	0.235
AACATTAA	-0.00496
ACTGTGAC	0.397
GTCGCTCA	0.171
ACAGCGAC	0.00958
ACTATGAC	0.372
GTAGCGAA	-0.0282
GCTATGAC	0.307
ACTGTGAT	0.165
ACTGTGAA	0.0208
